Experiment: Maximum plsma drug concentration in guinea pig when 3 mg/kg dose was given perorally
Format: ADME, organism-based, Cavia porcellus
Design: dose 3 mg/kg, route oral
Details: plasma, po
MEASUREMENT_KIND: Cmax (ng/mL)
Respond with the bare value in ng/mL.

Requested read-out: Cmax. Entry: CCc1cc2c(C(=O)Nc3c(Cl)c[n+]([O-])cc3Cl)cnc(OC)c2o1 1410

###

Experiment: Bioavailability in guinea pig was tested
Assay type: ADME, organism-based, Cavia porcellus
Conditions: in vivo, read-out: Bioavailabiility
MEASUREMENT_KIND: bioavailability
State the value, then name its unit.

I'd like to know its bioavailability. The molecule in question is CCc1cc2c(C(=O)Nc3c(Cl)c[n+]([O-])cc3Cl)cnc(OC)c2o1 54%
